As shown below, each of these molecules has a reported IC50 value.
Target under test: FAAH (Rattus norvegicus, UniProt P97612)
Construct: Preparation of Rat Brain Membranes Preparations (FAAH Enzyme Solution); from tissue; host or cells: rat cerebrum (brain membrane preparation)
Sequence (P97612 whole entry): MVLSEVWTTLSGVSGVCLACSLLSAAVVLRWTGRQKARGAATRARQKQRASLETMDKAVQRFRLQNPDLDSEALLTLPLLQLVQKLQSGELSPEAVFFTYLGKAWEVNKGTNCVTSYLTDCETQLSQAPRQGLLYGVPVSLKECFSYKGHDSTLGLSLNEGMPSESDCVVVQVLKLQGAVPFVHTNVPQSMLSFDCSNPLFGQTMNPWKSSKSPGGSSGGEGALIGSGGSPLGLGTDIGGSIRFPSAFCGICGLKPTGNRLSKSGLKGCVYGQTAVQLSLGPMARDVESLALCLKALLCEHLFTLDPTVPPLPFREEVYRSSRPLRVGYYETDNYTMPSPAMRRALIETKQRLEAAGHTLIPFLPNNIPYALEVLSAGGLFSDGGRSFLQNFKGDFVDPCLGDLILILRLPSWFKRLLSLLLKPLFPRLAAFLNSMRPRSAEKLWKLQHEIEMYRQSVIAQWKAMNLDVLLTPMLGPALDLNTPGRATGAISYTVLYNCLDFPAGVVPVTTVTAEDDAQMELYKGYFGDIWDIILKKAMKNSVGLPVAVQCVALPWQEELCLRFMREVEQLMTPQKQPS
Procedure text: Determination of FAAH inhibitory activity in rat (rat brain membrane preparations, [3H]-anandamide hydrolysis)
Format: biochemical
Condition parameters: FAAH Inhibition IC50, rat brain membrane preparations; test substance 0.1 nM to 1 μM
API: value field is a number in nM; no unit string.

Take a look at these entries with their results.
Cn1c(=O)n(C(=O)N2CCC2)c2cnc(COc3cccc(F)c3)nc21 [compound 405] ... 98
COc1cccc(-c2ncc3c(n2)n(C)c(=O)n3C(=O)N(C)CCCl)c1 [Example 103] ... 7

Looking for the measured IC50 of COc1cccc(-c2ncc3c(n2)n(C)c(=O)n3C(=O)N(C)CCc2cccc(Cl)c2)c1 [Example 76] , can you help?
3
